- Test: clinical
- Test settings: male, human, in vivo
- Description: Twenty-four healthy non-smoking male volunteers were enrolled in the present study. The study was designed as a one-centre, open-labelled, randomized, balanced, 4-way cross-over phase I study. […] Between the doses there was a washout period of 72 hours. In order to standardize the buccal mucosa before administration of the orodispersible tablet, the subjects were asked to avoid foods, chewing gun etc. Subjects were allowed to brush their teeth in the morning before dosing, but without toothpaste. […]
Result type: bioavailability

{"columns": ["Smi", "Result type", "Value observed"],
 "data": [
  ["NC(=O)CC[C@@H]1NC(=O)[C@H](Cc2ccccc2)NC(=O)[C@H](Cc2ccc(O)cc2)NC(=O)CCSSC[C@@H](C(=O)N2CCC[C@H]2C(=O)N[C@H](CCCN=C(N)N)C(=O)NCC(N)=O)NC(=O)[C@H](CC(N)=O)NC1=O", "bioavailability", "0.23 to 0.38%"]
]}

----------
- Test: Bioavailability of desmopressin conventional tablets (Comparative Example 4)
- Test settings: male, human, in vivo, po, 200 μg, oral 2×100 μg tablets (Comparative Example 3)
Result type: bioavailability

{"columns": ["Smi", "Value observed"],
 "data": [
  ["NC(=O)CC[C@@H]1NC(=O)[C@H](Cc2ccccc2)NC(=O)[C@H](Cc2ccc(O)cc2)NC(=O)CCSSC[C@@H](C(=O)N2CCC[C@H]2C(=O)N[C@H](CCCN=C(N)N)C(=O)NCC(N)=O)NC(=O)[C@H](CC(N)=O)NC1=O", "0.13%"]
]}

----------
- Test: clinical
- Test settings: male, human, in vivo, bioavailability

{"columns": ["Smi", "bioavailability [%]"],
 "data": [
  ["NC(=O)CC[C@@H]1NC(=O)[C@H](Cc2ccccc2)NC(=O)[C@H](Cc2ccc(O)cc2)NC(=O)CCSSC[C@@H](C(=O)N2CCC[C@H]2C(=O)N[C@H](CCCN=C(N)N)C(=O)NCC(N)=O)NC(=O)[C@H](CC(N)=O)NC1=O", 0.3]
]}
